The reported numbers originate from paper PMC3961306.

- experimental_target: panel of more than 300 wild-type and mutant kinases (313 kinase panel) (Homo sapiens)
- assay_protocol: Kinase profiling in a biochemical assay panel (mobility shift assays and ELISA), %-inhibition at 1 μM; selectivity entropy
- measurement_conditions: kinase CSK; compound at 1 μM
Each entry below lists one item and its recorded %-inhibition of CSK value.
Report as a plain number; the unit % is understood.

For orientation, consider the following solved cases.
Value of %-inhibition of CSK reported for the molecule "CC(C)(C)c1nc(-c2cccc(NS(=O)(=O)c3c(F)cccc3F)c2F)c(-c2ccnc(N)n2)s1" is 98

For this molecule ( "CNC(=O)c1cc(Oc2ccc(NC(=O)Nc3ccc(Cl)c(C(F)(F)F)c3)c(F)c2)ccn1" ), measured %-inhibition of CSK is 28

// %-inhibition of CSK value for "N#CC[C@H](C1CCCC1)n1cc(-c2ncnc3[nH]ccc23)cn1" : -0.827

# %-inhibition of CSK (molecule: "CO[C@H]1C[C@@H]2CC[C@@H](C)[C@@](O)(O2)C(=O)C(=O)N2CCCC[C@H]2C(=O)O[C@H]([C@H](C)C[C@@H]2CC[C@@H](OC(=O)C(C)(CO)CO)[C@H](OC)C2)CC(=O)[C@H](C)/C=C(\C)[C@@H](O)[C@@H](OC)C(=O)[C@H](C)C[C@H](C)/C=C/C=C/C=C/1C" ) is -1.56

GET /value?item= "CC(=O)Nc1cccc(-n2c(=O)n(C3CC3)c(=O)c3c(Nc4ccc(I)cc4F)n(C)c(=O)c(C)c32)c1" &field=%-inhibition of CSK returns -2.83

--- query ---
%-inhibition of CSK for "CCCS(=O)(=O)Nc1ccc(F)c(C(=O)c2c[nH]c3ncc(-c4ccc(Cl)cc4)cc23)c1F" is 76

###

- experimental_target: panel of more than 300 wild-type and mutant kinases (313 kinase panel) (Homo sapiens)
- assay_protocol: Kinase profiling in a biochemical assay panel (mobility shift assays and ELISA), %-inhibition at 1 μM; selectivity entropy
- measurement_conditions: kinase CDK6/CycD3; 1 μM compound
endpoint: %-inhibition, CDK6/CycD3 (%)
Respond with the bare value in %.

# count of solved cases: 3
get_value(item= C[C@@H](Oc1cc(-c2cnn(C3CCNCC3)c2)cnc1N)c1c(Cl)ccc(F)c1Cl [crizotinib] , readout=%-inhibition, CDK6/CycD3) returns 0.0624

Looking up COc1cc(Nc2c(C#N)cnc3cc(OCCCN4CCN(C)CC4)c(OC)cc23)c(Cl)cc1Cl [bosutinib] , I found its %-inhibition, CDK6/CycD3 recorded as 0.0624

Record CCCS(=O)(=O)Nc1ccc(F)c(C(=O)c2c[nH]c3ncc(-c4ccc(Cl)cc4)cc23)c1F [vemurafenib] , field %-inhibition, CDK6/CycD3: 2.43

Continuing:
Field %-inhibition, CDK6/CycD3 (entry CC(=O)Nc1cccc(-n2c(=O)n(C3CC3)c(=O)c3c(Nc4ccc(I)cc4F)n(C)c(=O)c(C)c32)c1 [trametinib] ) reads -4.23

###

- experimental_target: panel of more than 300 wild-type and mutant kinases (313 kinase panel) (Homo sapiens)
- Sequence (P52564 1-334): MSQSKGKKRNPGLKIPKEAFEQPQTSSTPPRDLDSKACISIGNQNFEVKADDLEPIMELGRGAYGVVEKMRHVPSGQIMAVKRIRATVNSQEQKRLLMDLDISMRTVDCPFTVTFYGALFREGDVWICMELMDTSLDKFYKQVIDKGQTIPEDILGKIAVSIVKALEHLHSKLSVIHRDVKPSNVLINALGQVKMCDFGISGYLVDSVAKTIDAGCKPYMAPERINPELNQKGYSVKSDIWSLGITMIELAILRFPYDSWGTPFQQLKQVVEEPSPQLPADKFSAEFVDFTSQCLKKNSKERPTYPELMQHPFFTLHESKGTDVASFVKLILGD
- assay_protocol: Kinase profiling in a biochemical assay panel (mobility shift assays and ELISA), %-inhibition at 1 μM; selectivity entropy
- measurement_conditions: kinase MAP2K6; compound at 1 μM
Records here are stratified by %-inhibition of MAP2K6; strata: range A = under 10%, range B = from 10% up to 80%, range C = 80% and over

See these solved cases before continuing.
Place this molecule in its band: "Cc1nc(Nc2ncc(C(=O)Nc3c(C)cccc3Cl)s2)cc(N2CCN(CCO)CC2)n1"
range B

Please let me know in which category the item "CO[C@H]1C[C@@H]2CC[C@@H](C)[C@@](O)(O2)C(=O)C(=O)N2CCCC[C@H]2C(=O)O[C@H]([C@H](C)C[C@@H]2CC[C@@H](OCCO)[C@H](OC)C2)CC(=O)[C@H](C)/C=C(\C)[C@@H](O)[C@@H](OC)C(=O)[C@H](C)C[C@H](C)/C=C/C=C/C=C/1C" belongs.
range B

Which %-inhibition of MAP2K6 category applies to COc1cc2nccc(Oc3ccc(NC(=O)C4(C(=O)Nc5ccc(F)cc5)CC4)cc3)c2cc1OC [cabozantinib] here?
range C

Would you mind sorting "CNC(=O)c1cc(Oc2ccc(NC(=O)Nc3ccc(Cl)c(C(F)(F)F)c3)c(F)c2)ccn1" into the appropriate category?
range C

Which band does "COc1cc2c(Nc3ccc(Br)cc3F)ncnc2cc1OCC1CCN(C)CC1" fall in?
range B

Others:
Which bin should I file "CC(=O)Nc1cccc(-n2c(=O)n(C3CC3)c(=O)c3c(Nc4ccc(I)cc4F)n(C)c(=O)c(C)c32)c1" under?
range A

Categorize the following entry: "O=S(=O)(c1cccc2cnccc12)N1CCCNCC1"
range A

Looking at "CCCS(=O)(=O)Nc1ccc(F)c(C(=O)c2c[nH]c3ncc(-c4ccc(Cl)cc4)cc23)c1F" , which class would you pick?
range B

###

- experimental_target: panel of more than 300 wild-type and mutant kinases (313 kinase panel) (Homo sapiens)
- assay_protocol: Kinase profiling in a biochemical assay panel (mobility shift assays and ELISA), %-inhibition at 1 μM; selectivity entropy
- measurement_conditions: kinase COT; compound at 1 μM
endpoint: %-inhibition of COT (%)
State just the number; it will be interpreted in %.

Below, 5 compounds whose answers are already recorded.
Sample "CS(=O)(=O)CCNCc1ccc(-c2ccc3ncnc(Nc4ccc(OCc5cccc(F)c5)c(Cl)c4)c3c2)o1" ; %-inhibition of COT observed: -0.221

Measured %-inhibition of COT, "COc1cc(Nc2c(C#N)cnc3cc(OCCCN4CCN(C)CC4)c(OC)cc23)c(Cl)cc1Cl" : 7

Measured %-inhibition of COT, "CC(C)(C)c1nc(-c2cccc(NS(=O)(=O)c3c(F)cccc3F)c2F)c(-c2ccnc(N)n2)s1" : 9

GET /value?item= "CNC(=O)c1cc(Oc2ccc(NC(=O)Nc3ccc(Cl)c(C(F)(F)F)c3)c(F)c2)ccn1" &field=%-inhibition of COT returns -4

Form field %-inhibition of COT, entry "Cc1ccc(C(=O)Nc2ccc(CN3CCN(C)CC3)c(C(F)(F)F)c2)cc1C#Cc1cnc2cccnn12" : -2.42

Okay, next one:
For this compound ( "Cc1ccc(Nc2nccc(N(C)c3ccc4c(C)n(C)nc4c3)n2)cc1S(N)(=O)=O" ), measured %-inhibition of COT is -0.233

###

- experimental_target: panel of more than 300 wild-type and mutant kinases (313 kinase panel) (Homo sapiens)
- assay_protocol: Kinase profiling in a biochemical assay panel (mobility shift assays and ELISA), %-inhibition at 1 μM; selectivity entropy
- measurement_conditions: kinase LCK; compound at 1 μM
%-inhibition of LCK values for the molecules below.
Output spec: scalar in %, unitless text.

// below: answered molecules
For record Cc1ccc(Nc2nccc(N(C)c3ccc4c(C)n(C)nc4c3)n2)cc1S(N)(=O)=O [pazopanib] the listed %-inhibition of LCK is 73

Please fill in: %-inhibition of LCK reported for CCCS(=O)(=O)Nc1ccc(F)c(C(=O)c2c[nH]c3ncc(-c4ccc(Cl)cc4)cc23)c1F [vemurafenib] = 81

// field: %-inhibition of LCK; key: CS(=O)(=O)CCNCc1ccc(-c2ccc3ncnc(Nc4ccc(OCc5cccc(F)c5)c(Cl)c4)c3c2)o1 [lapatinib] ; value = 12

Attention now shifts to the item below.
Kindly note the recorded %-inhibition of LCK for COc1cc2nccc(Oc3ccc(NC(=O)C4(C(=O)Nc5ccc(F)cc5)CC4)cc3)c2cc1OC [cabozantinib] , which is 98

###

- experimental_target: panel of more than 300 wild-type and mutant kinases (313 kinase panel) (Homo sapiens)
- assay_protocol: Kinase profiling in a biochemical assay panel (mobility shift assays and ELISA), %-inhibition at 1 μM; selectivity entropy
- measurement_conditions: kinase PAK4; 1 μM
endpoint: %-inhibition of PAK4 (%)
Numbers only; they are read as %.

Examples with their reported %-inhibition of PAK4 follow.
Lab note: measured %-inhibition of PAK4 of "Cc1ccc(Nc2nccc(N(C)c3ccc4c(C)n(C)nc4c3)n2)cc1S(N)(=O)=O" was 1.68

Notebook: "CCN(CC)CCNC(=O)c1c(C)[nH]c(/C=C2\C(=O)Nc3ccc(F)cc32)c1C" , %-inhibition of PAK4 read as 6.58

Further cases:
%-inhibition of PAK4 for "CO[C@H]1C[C@@H]2CC[C@@H](C)[C@@](O)(O2)C(=O)C(=O)N2CCCC[C@H]2C(=O)O[C@H]([C@H](C)C[C@@H]2CC[C@@H](OC(=O)C(C)(CO)CO)[C@H](OC)C2)CC(=O)[C@H](C)/C=C(\C)[C@@H](O)[C@@H](OC)C(=O)[C@H](C)C[C@H](C)/C=C/C=C/C=C/1C" is -19
